# Test system: HCC-2998 colon
# METHOD: NCI-60 one-dose screen, 48 h (100 = growth as untreated, 0 = no growth, -100 = all killed)
# TEST_CONDITIONS: 10 µM unless noted
About 83,000 compounds went through this panel and 20% of them were active in at least one assay; those are over-represented in the sample as a whole.
REPORTED_ENDPOINT: growth (%)
API: value field is a number in %; no unit string.

COMPOUND	REPORTED_ENDPOINT	VAL
CSc1nc(C)c([N+](=O)[O-])c(N)n1	growth	114

Name the reported growth value associated with the compound O=C(c1c[nH]c2ccccc12)c1n[nH]c(=S)n1-c1cccc(Br)c1
38.8

Now consider COc1ccc(/C=C/C(c2cc(OC)c(OC)c(OC)c2)n2ccnc2)cc1O (stereo not given) and answer again.
77

Now consider COc1ccc(Cn2cc3c(c2-c2ccccc2)CCc2cnoc2-3)cc1 and answer again.
12.5

Now consider O=C(N/N=C\c1cccc([N+](=O)[O-])c1)N/N=C/c1cccc([N+](=O)[O-])c1 and answer again.
109

Now consider O=C(NNC(=O)c1nc2cc(F)ccc2n2cccc12)c1cnccn1 and answer again.
50.7

Now consider Cc1nn(-c2ccccc2)c(N)c1N=C1NC(=O)/C(=C/c2ccc(Br)cc2)S1 and answer again.
111

Now consider C=C1CC[C@@H]2C(C)(C)[C@@H](O)CC[C@@]2(C)[C@@H]1COc1ccc2ccc(=O)oc2c1 and answer again.
92.3

Now consider O=C(CCCCCCN1CC(=O)N2[C@H](c3ccc(Br)cc3)c3[nH]c4ccccc4c3C[C@@H]2C1=O)NO and answer again.
67.5

Now consider CCOc1c(OC)cc2c(c1O)C(=O)N[C@@H]1[C@@H](O)[C@@H](O)[C@H](O)C[C@@H]21 and answer again.
102

---

# System: SK-MEL-2 melanoma
# METHOD: NCI-60 one-dose screen, 48 h (100 = growth as untreated, 0 = no growth, -100 = all killed)
# TEST_CONDITIONS: 10 µM unless noted
# Experimental: Growth inhibition of the SK-MEL-2 human tumor cell line is measured as a screen for anti-cancer activity. Cells are grown in 96 well plates and exposed to the test compound for 48 hours. Compounds are tested at a single concentration, which is 10^-5 M for most compounds. The reported endpoint is percent growth (GI% or GIPRCNT), where numbers from 0 - 100% represent growth inhibition, and numbers from -100% - 0 represent cell death. For example, a value of 40 represents 60% growth inhibition. […]
About 83,000 compounds went through this panel and 20% of them were active in at least one assay; those are over-represented in the sample as a whole.
If the reported growth equals or exceeds 90%, assign met. If not, assign not met.

COMPOUND	LABEL_VALUE
Cc1c2cccnc2c(C)c2c1c1cc(CO)ccc1n2C	not met
NC(=O)c1cccc([C@@H]2O[C@H](CO)[C@@H](O)[C@H]2O)c1	met
COc1ccc(CNc2c3ccccc3nc3ccccc23)c(OC)c1	met

Does O=C(O)c1ccc(-c2ccc(/C=N/Nc3nc(Nc4ccccc4)nc(N4CCCCC4)n3)o2)cc1 have a reported growth of at least 90%?
not met

Now consider C/C=C(/C)n1cnc2c(Nc3ccccn3)nc(Cl)nc21 and answer again.
met

Now consider CN1C(=O)/C(=C2\SC(=Nc3ccccc3)N(Nc3ccccc3)C2=O)c2ccccc21 and answer again.
met

Now consider COc1ccc(-c2ccc(-c3ccc(C(=N)N)nc3)s2)cc1Cl and answer again.
met

Now consider CC1(C)CC[C@]2(C(=O)N[C@H](CO)Cc3ccccc3)CC[C@]3(C)C(=CC[C@@H]4[C@@]5(C)CCCNC(C)(C)[C@@H]5CC[C@]43C)[C@@H]2C1 and answer again.
met

Now consider O=C(Nc1ncc(Cc2cc(C(F)(F)F)ccc2Cl)s1)c1cccs1 and answer again.
not met

Now consider CCCCNc1nnc2n(Cc3ccccc3)c(=O)c3c4c(sc3n12)CCCC4 and answer again.
not met

Now consider CO[C@H](C(=O)[C@@H](O)[C@@H](C)O)[C@@H]1Cc2cc3cc(O[C@H]4C[C@@H](O[C@H]5C[C@@H](O)[C@H](O)C(C)O5)[C@H](O)C(C)(O)O4)cc(O)c3c(O)c2C(=O)[C@H]1O[C@H]1C[C@@H](O[C@H]2C[C@@H](O[C@H]3C[C@@H](OC)[C@H](O)C(C)O3)[C@@H](O)C(C)O2)[C@H](O)C(C)O1 (some centres not stated) and answer again.
not met

Now consider CCc1ccc(CCC(=O)Nc2ncc(Cc3ccccc3)s2)o1 and answer again.
not met

Now consider CCN(CC)CCN1C(=O)c2c(c(C)c3c(oc4ccc(OC)cc43)c2C)C1=O and answer again.
met

---

# Test system: DU-145 prostate
# METHOD: NCI-60 one-dose screen, 48 h
# TEST_CONDITIONS: 10 µM unless noted
About 83,000 compounds went through this panel and 20% of them were active in at least one assay; those are over-represented in the sample as a whole. Active and inactive are the calls of the source. The calls were made as follows: active = growth percent below 10; inactive = the rest.
Please answer using one outcome listed in active, inactive

Study these solved cases before continuing.
ENTRY_SMILES	LABEL_VALUE
Cc1ccc2nc(-c3ccc(C(=O)NNC(=S)Nc4ccccc4)cc3)[nH]c2c1	inactive
CCNc1nc(O)c(/C=C2\C=Nc3ncccc32)s1	active
COc1cccc(Nc2ncnc3cc(NC(=O)CCl)ccc23)c1	active
Cc1ccc2nc(NC(=O)CSc3nc(-c4ccccc4)c(C#N)c4nnnn34)sc2c1	inactive
CCOC(=O)c1ccccc1-c1c2ccc(=[N+](C)C)cc-2oc2cc(N(C)C)ccc12	inactive
Cc1n[nH]c2ccc(Br)cc2c1=O	inactive

Record request — test call for CNC1=CC(=O)c2c(C(=O)OC)c(C)[n+]([O-])c(C)c2C1=O
inactive

Now consider CCCCC#Cc1c(I)n(C)c(=O)[nH]c1=O and answer again.
inactive

Now consider O=S(=O)(Nc1cc(Sc2cccc3cccnc23)c(O)c2ccccc12)c1ccccc1 and answer again.
inactive

Now consider COc1cc(/C=N/Nc2ccc(Br)cc2)cc(OC)c1OC and answer again.
inactive

Now consider NNCCc1ccc(NC(=O)CCCc2ccc(C(=O)Nc3ccccc3N)cc2)cc1 and answer again.
inactive

---

# System: UO-31 renal
# METHOD: NCI-60 one-dose screen, 48 h (100 = growth as untreated, 0 = no growth, -100 = all killed)
# TEST_CONDITIONS: 10 µM unless noted
Compounds without any hit were thinned out: in the full panel of roughly 83,000, 20% have a hit.
# thresholds on growth define classes: bucket 1: < 30%; bucket 2: ≥ 30% and < 60%; bucket 3: ≥ 60%

Study these solved cases before continuing.
MOLECULE	SYSTEM_NAME	LABEL_VALUE
Nc1nc(N)c2c(n1)NC(c1cccc(Nc3ccnc4cc(C(F)(F)F)ccc34)c1)CC(c1ccc(Br)cc1)=N2 (stereo not drawn)	UO-31 renal	bucket 3
CC1CCN(C(=O)CCCl)c2ccccc21 (stereo not drawn)	UO-31 renal	bucket 3
C=Cc1cnc(Nc2ccc(OC)cc2)nc1NCCCNC(=O)C1CCC1	UO-31 renal	bucket 1

Determine which band this molecule sits in: COc1ccc(/C=C2\COc3ccc(O)cc3C2=O)cc1
bucket 3

Now consider Cc1nc2c(=O)nc3s/c(=C\c4ccco4)c(=O)n3c2nc1C and answer again.
bucket 3

Now consider CN1CCN(C(=O)C(C)(C)c2ccc(C(=O)Nc3cn4cc(-c5ccncc5)ccc4n3)cc2)CC1 and answer again.
bucket 1

---

# Tested on: SN12C renal
# METHOD: NCI-60 one-dose screen, 48 h (100 = growth as untreated, 0 = no growth, -100 = all killed)
# TEST_CONDITIONS: 10 µM unless noted
This is part of a sample that, as a whole, favours compounds with a hit. Of some 83,000 tested, about 20% had one in any assay.
If the reported growth equals or exceeds 80%, assign T. If not, assign F.

COMPOUND	LABEL_VALUE
CCCCCCCCCCCCCCCCCC1=NC(C)(C)CN1CC(C)O (stereo unspecified)	F
CC1=CC(c2ccco2)=C2C(N)=NNC2N1 (stereo unspecified)	T
Cc1nnc(-c2ccc3c(c2)nc(/C=C/c2ccccc2)n3C2CCCCC2)o1	T
CCOC(=O)C(Cc1ccc(OC)cc1)C(=O)OCC	F
CCCCC#Cc1c(I)n(C)c(=O)[nH]c1=O	F
NS(=O)(=O)c1ccc(NC(=O)/C(=C\c2ccc(Cl)cc2Cl)NC(=O)c2ccccc2)cc1	T
O=C(CC(=O)Nc1cccc(C(=O)O)c1)Nc1cccc(C(=O)O)c1	T
O=C(/C=C(O)/C=C/c1cccc2[nH]ccc12)/C=C/c1cccc2[nH]ccc12	T

Does CNCc1cccc2c1OCCOCCOCCNS(=O)(=O)c1ccc(cc1)-c1cnc(N)c(n1)C(=O)N2 have a reported growth of at least 80%?
F

Now consider Cc1ccc(/C=C(\C#N)n2nnc3cc(F)c(F)cc32)cc1 and answer again.
F

Now consider Cc1cccc(N2CCC(=O)NC2=S)c1 and answer again.
T
